Recorded IC50 by entry
- experimental.target: APOL1 G1 Protein (Homo sapiens, UniProt O14791, I384M/S342G)
- Sequence (O14791 28-398 S342G/I384M): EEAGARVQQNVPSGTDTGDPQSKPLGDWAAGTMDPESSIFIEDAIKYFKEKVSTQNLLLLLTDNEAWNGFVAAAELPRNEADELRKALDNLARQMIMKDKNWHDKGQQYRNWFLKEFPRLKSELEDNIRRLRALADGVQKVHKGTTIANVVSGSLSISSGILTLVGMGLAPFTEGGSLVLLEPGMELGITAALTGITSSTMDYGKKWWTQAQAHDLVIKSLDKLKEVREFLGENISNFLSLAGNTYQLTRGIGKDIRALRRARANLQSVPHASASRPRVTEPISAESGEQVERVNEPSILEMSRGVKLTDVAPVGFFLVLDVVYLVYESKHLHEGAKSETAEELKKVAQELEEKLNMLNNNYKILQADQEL
- test.details: Trypanosoma brucei brucei lysis assay using APOL1 recombinant protein (AlamarBlue viability)
- Format: cell-based
- condition.set: Trypanosoma brucei brucei lysis, recombinant APOL1, AlamarBlue; read-out: Trypanosoma Assay (IC50)

[
  {
    "compound": "O=C([C@H]1C[C@H](c2c(-c3ccc(F)cc3)[nH]c3c(F)cc(F)cc32)C1)N1CCC(CCO)CC1 [Compound 134]",
    "IC50": "> 1000 nM"
  },
  {
    "compound": "O=C1NCC[C@H]1NC(=O)[C@H]1C[C@H](c2c(-c3ccc(F)cc3)[nH]c3c(F)cc(F)cc32)C1 [Compound 45]",
    "IC50": "< 250 nM"
  },
  {
    "compound": "O=C(NCCCO)[C@H]1C[C@H](c2c(-c3ccc(F)cc3)[nH]c3c(F)cc(F)cc32)C1 [Compound 104]",
    "IC50": "< 250 nM"
  },
  {
    "compound": "COCCNC(=O)[C@H]1C[C@H](c2c(-c3ccc(F)cc3)[nH]c3c(F)cc(F)cc32)C1 [Compound 12]",
    "IC50": "250 to 1000 nM"
  },
  {
    "compound": "O=C([C@H]1C[C@H](c2c(-c3ccc(F)cc3)[nH]c3c(F)cc(F)cc32)C1)N1CCCC[C@@H]1CO [Compound 107]",
    "IC50": "250 to 1000 nM"
  },
  {
    "compound": "CC1C[C@H](NC(=O)[C@H]2C[C@H](c3c(-c4ccc(F)cc4)[nH]c4c(F)cc(F)cc43)C2)C(=O)N1 (mixture of isomers) [Compound 84]",
    "IC50": "250 to 1000 nM"
  },
  {
    "compound": "CC(O)CNC(=O)[C@H]1C[C@H](c2c(-c3ccc(F)cc3)[nH]c3c(F)cc(F)cc32)C1 (stereo partly drawn) [Compound 167]",
    "IC50": "250 to 1000 nM"
  },
  {
    "compound": "C[C@@H](NC(=O)[C@H]1C[C@H](c2c(-c3ccc(F)cc3)[nH]c3c(F)cc(F)cc32)C1)C(N)=O [Compound 28]",
    "IC50": "> 1000 nM"
  },
  {
    "compound": "O=C([C@H]1C[C@H](c2c(-c3ccc(F)cc3)[nH]c3c(F)cc(F)cc32)C1)N1CCCC(CO)C1 (stereo partly drawn) [Compound 147]",
    "IC50": "> 1000 nM"
  },
  {
    "compound": "CN1CC(CNC(=O)[C@H]2C[C@H](c3c(-c4ccc(F)cc4)[nH]c4c(F)cc(F)cc43)C2)CC1=O (stereo partly drawn) [Compound 70]",
    "IC50": "> 1000 nM"
  },
  {
    "compound": "CN(C(=O)[C@H]1C[C@H](c2c(-c3ccc(F)cc3)[nH]c3c(F)cc(F)cc32)C1)C1(CO)CC1 [Compound 58]",
    "IC50": "250 to 1000 nM"
  },
  {
    "compound": "CN(CC1(CO)CCOCC1)C(=O)[C@H]1C[C@H](c2c(-c3ccc(F)cc3)[nH]c3c(F)cc(F)cc32)C1 [Compound 120]",
    "IC50": "> 1000 nM"
  },
  {
    "compound": "O=C(N[C@H]1CNC[C@@H]1O)[C@H]1C[C@H](c2c(-c3ccc(F)cc3)[nH]c3c(F)cc(F)cc32)C1 [Compound 212]",
    "IC50": "250 to 1000 nM"
  },
  {
    "compound": "O=C([C@H]1C[C@H](c2c(-c3ccc(F)cc3)[nH]c3c(F)cc(F)cc32)C1)N1C[C@@H](O)[C@H](O)C1 [Compound 227]",
    "IC50": "250 to 1000 nM"
  },
  {
    "compound": "CC[C@H](CO)NC(=O)[C@H]1C[C@H](c2c(-c3ccc(F)cc3)[nH]c3c(F)cc(F)cc32)C1 [Compound 203]",
    "IC50": "250 to 1000 nM"
  },
  {
    "compound": "O=C(NC[C@H](O)C(F)(F)F)[C@H]1C[C@H](c2c(-c3ccc(F)cc3)[nH]c3c(F)cc(F)cc32)C1 [Compound 176]",
    "IC50": "< 250 nM"
  },
  {
    "compound": "O=C(N[C@H]1CC[C@H]1O)[C@H]1C[C@H](c2c(-c3ccc(F)cc3)[nH]c3c(F)cc(F)cc32)C1 [Compound 181]",
    "IC50": "250 to 1000 nM"
  },
  {
    "compound": "C[C@H](O)[C@@H](CO)NC(=O)[C@H]1C[C@H](c2c(-c3ccc(F)cc3)[nH]c3c(F)cc(F)cc32)C1 [Compound 16]",
    "IC50": "< 250 nM"
  },
  {
    "compound": "O=C([C@H]1C[C@H](c2c(-c3ccc(F)cc3)[nH]c3c(F)cc(F)cc32)C1)N1CCCC(CCO)C1 (stereo partly drawn) [Compound 128]",
    "IC50": "> 1000 nM"
  },
  {
    "compound": "O=C(NCCn1cnnc1)[C@H]1C[C@H](c2c(-c3ccc(F)cc3)[nH]c3c(F)cc(F)cc32)C1 [Compound 39]",
    "IC50": "> 1000 nM"
  },
  {
    "compound": "Cc1cnc(NC(=O)[C@H]2C[C@H](c3c(-c4ccc(F)cc4)[nH]c4c(F)cc(F)cc43)C2)o1 [Compound 24]",
    "IC50": "> 1000 nM"
  },
  {
    "compound": "NC(=O)[C@H](CO)NC(=O)[C@H]1C[C@H](c2c(-c3ccc(F)cc3)[nH]c3c(F)cc(F)cc32)C1 [Compound 144]",
    "IC50": "250 to 1000 nM"
  },
  {
    "compound": "CC(NC(=O)[C@H]1C[C@H](c2c(-c3ccc(F)cc3)[nH]c3c(F)cc(F)cc32)C1)C(N)=O (mixture of isomers) [Compound 68]",
    "IC50": "250 to 1000 nM"
  },
  {
    "compound": "O=C(NC[C@@H](O)C(F)(F)F)[C@H]1C[C@H](c2c(-c3ccc(F)cc3)[nH]c3c(F)cc(F)cc32)C1 [Compound 177]",
    "IC50": "250 to 1000 nM"
  },
  {
    "compound": "NC(=O)CNC(=O)[C@H]1C[C@H](c2c(-c3ccc(F)cc3)[nH]c3c(F)cc(F)cc32)C1 [Compound 1]",
    "IC50": "< 250 nM"
  },
  {
    "compound": "O=C(N[C@H](CO)C(F)(F)F)[C@H]1C[C@H](c2c(-c3ccc(F)cc3)[nH]c3c(F)cc(F)cc32)C1 [Compound 164]",
    "IC50": "< 250 nM"
  },
  {
    "compound": "COCC1(CNC(=O)[C@H]2C[C@H](c3c(-c4ccc(F)cc4)[nH]c4c(F)cc(F)cc43)C2)CC1 [Compound 53]",
    "IC50": "> 1000 nM"
  }
]
